- EXPERIMENTAL DETAILS: Selectivity index, ratio of CC50 for mouse J774.A1 cells to ratio of IC50 for antitrypanosomal activity against bloodstream Trypanosoma cruzi INC-5 strain trypomastigotes
- Format: toxicity
- ASSAY SETUP: read-out: Ratio CC50/IC50
Task for the reader: assign each of the following molecules its reported selectivity ratio.
The reply should be a number, written without any unit.

Inquiry: Which selectivity ratio reading was recorded for the molecule Fc1cccc(F)c1CSc1nc2ccccc2s1 ?
Reply text: 1.91

Inquiry: Which selectivity ratio reading was recorded for the molecule Fc1c(F)c(F)c(CSc2nc3ccccc3s2)c(F)c1F ?
Reply text: 1.34

###

- Test system: Trypanosoma cruzi
- EXPERIMENTAL DETAILS: Antitrypanosomal activity against Trypanosoma cruzi arequipa strain trypomastigotes assessed as parasite growth inhibition incubated for 48 hrs by resazurin staining based analysis
- Type: functional, organism-based
Task for the reader: assign each of the following molecules its reported pIC50.
Give only the number. pIC50 is defined as minus log10 of concentration in molar units.

Inquiry: Which pIC50 reading was recorded for the molecule Cc1ccc(S(=O)(=O)Nc2ccc([Se][Se]c3ccc(NS(=O)(=O)c4ccc(C)cc4)cc3)cc2)cc1 ?
Reply text: 5.43

Inquiry: Which pIC50 reading was recorded for the molecule Cc1ccc(C[Se]C#N)cc1 ?
Reply text: 5.35

Inquiry: Which pIC50 reading was recorded for the molecule FC(F)(F)c1ccc(C[Se][Se]Cc2ccc(C(F)(F)F)cc2)cc1 ?
Reply text: 5.82

Inquiry: Which pIC50 reading was recorded for the molecule N#C[Se]Cc1ccccc1[N+](=O)[O-] ?
Reply text: 5.89

Inquiry: Which pIC50 reading was recorded for the molecule N#Cc1ccc(C[Se][Se]Cc2ccc(C#N)cc2)cc1 ?
Reply text: 6.05

Inquiry: Which pIC50 reading was recorded for the molecule CSc1ccc(C[Se][Se]Cc2ccc(SC)cc2)cc1 ?
Reply text: 5.77

Inquiry: Which pIC50 reading was recorded for the molecule O=C(Nc1ccc([Se][Se]c2ccc(NC(=O)c3ccc(C(F)(F)F)cc3)cc2)cc1)c1ccc(C(F)(F)F)cc1 ?
Reply text: 5.62

Inquiry: Which pIC50 reading was recorded for the molecule O=S(=O)(Nc1ccc([Se][Se]c2ccc(NS(=O)(=O)c3ccc(C(F)(F)F)cc3)cc2)cc1)c1ccc(C(F)(F)F)cc1 ?
Reply text: 5.70

Inquiry: Which pIC50 reading was recorded for the molecule O=C(Nc1ccc([Se][Se]c2ccc(NC(=O)c3ccco3)cc2)cc1)c1ccco1 ?
Reply text: 5.74

Inquiry: Which pIC50 reading was recorded for the molecule O=C(Nc1ccc([Se][Se]c2ccc(NC(=O)c3cccs3)cc2)cc1)c1cccs1 ?
Reply text: 4.90

Inquiry: Which pIC50 reading was recorded for the molecule O=C(Nc1ccc([Se][Se]c2ccc(NC(=O)c3ccc([N+](=O)[O-])cc3)cc2)cc1)c1ccc([N+](=O)[O-])cc1 ?
Reply text: 4.45

Inquiry: Which pIC50 reading was recorded for the molecule N#C[Se]Cc1cccc(C#N)c1 ?
Reply text: 6.05

These measurements were taken from ChEMBL document CHEMBL5352465.
